Answer each item with its documented residual activity.
biological target: Platelet-derived growth factor receptor alpha (Homo sapiens) (UniProt P16234); details: at 10 µM
Sequence (P16234 whole entry): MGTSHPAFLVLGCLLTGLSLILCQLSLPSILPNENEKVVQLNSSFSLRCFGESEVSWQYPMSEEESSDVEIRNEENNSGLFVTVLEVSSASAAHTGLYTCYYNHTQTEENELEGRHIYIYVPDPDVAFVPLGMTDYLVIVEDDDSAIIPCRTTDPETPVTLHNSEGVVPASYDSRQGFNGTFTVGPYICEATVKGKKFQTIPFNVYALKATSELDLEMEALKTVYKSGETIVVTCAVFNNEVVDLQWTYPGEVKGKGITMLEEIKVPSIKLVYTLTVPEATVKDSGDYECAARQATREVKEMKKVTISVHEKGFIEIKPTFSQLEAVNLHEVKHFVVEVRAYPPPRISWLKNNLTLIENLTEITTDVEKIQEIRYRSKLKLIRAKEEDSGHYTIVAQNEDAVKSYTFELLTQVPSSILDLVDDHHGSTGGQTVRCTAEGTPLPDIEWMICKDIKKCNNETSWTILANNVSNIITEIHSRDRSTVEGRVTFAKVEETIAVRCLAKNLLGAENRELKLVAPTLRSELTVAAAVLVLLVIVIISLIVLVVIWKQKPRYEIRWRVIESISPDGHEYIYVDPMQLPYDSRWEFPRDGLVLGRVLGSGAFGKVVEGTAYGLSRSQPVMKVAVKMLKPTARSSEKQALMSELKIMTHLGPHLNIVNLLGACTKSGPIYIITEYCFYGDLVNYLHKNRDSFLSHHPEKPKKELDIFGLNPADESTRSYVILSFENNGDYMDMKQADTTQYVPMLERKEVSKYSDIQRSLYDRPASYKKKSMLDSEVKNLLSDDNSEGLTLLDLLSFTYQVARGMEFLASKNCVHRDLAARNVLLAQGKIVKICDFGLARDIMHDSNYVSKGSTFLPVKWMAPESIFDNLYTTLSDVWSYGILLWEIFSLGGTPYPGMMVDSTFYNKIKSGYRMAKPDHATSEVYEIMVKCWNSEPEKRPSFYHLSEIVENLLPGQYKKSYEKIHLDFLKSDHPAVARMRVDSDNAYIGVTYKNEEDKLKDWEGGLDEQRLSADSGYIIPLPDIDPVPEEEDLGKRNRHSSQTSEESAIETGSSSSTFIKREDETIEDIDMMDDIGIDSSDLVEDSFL
Write the quantity with the unit trailing the number.

Nc1ccc2ncnc(NCCc3ccc(Oc4ccccc4)cc3)c2c1 : 43%

Hi team, please reply with residual activity for each item in this list.
1. COc1ccc(OC)c2c(=S)c3ccccc3[nH]c12
2. CC(C)n1cnc2c(NCc3ccccc3)nc(NCCCO)nc21
3. O=C1Nc2cc(Br)ccc2/C1=C1/Nc2ccccc2/C1=N\O
4. CNc1cc2c(Nc3cccc(Br)c3)ncnc2cn1
5. CCN(CC)CCCCN1c2ccccc2Oc2ccc(Cl)cc21

A.
["108%", "107%", "6%", "107%", "104%"]

---

biological target: Tyrosine-protein kinase Lck (Homo sapiens) (UniProt P06239); conditions: at 10 µM
Sequence (P06239 2-509 limits assumed): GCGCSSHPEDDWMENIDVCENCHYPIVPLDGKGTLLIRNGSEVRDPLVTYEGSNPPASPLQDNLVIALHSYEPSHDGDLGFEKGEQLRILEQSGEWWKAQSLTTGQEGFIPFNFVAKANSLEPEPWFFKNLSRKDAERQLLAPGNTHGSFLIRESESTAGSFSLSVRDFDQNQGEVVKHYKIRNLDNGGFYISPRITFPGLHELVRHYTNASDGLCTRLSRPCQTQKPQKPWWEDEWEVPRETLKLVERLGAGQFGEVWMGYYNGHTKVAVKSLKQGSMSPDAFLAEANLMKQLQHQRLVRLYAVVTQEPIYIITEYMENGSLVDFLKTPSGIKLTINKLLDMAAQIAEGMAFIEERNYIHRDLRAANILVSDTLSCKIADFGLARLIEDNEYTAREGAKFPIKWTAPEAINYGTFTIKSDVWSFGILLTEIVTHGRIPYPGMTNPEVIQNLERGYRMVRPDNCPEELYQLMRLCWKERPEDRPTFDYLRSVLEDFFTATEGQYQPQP
Give residual activity for every item shown.

Consider the following illustrative entries.
O=[N+]([O-])c1ccc(-c2nc(-c3ccc(F)cc3)c(-c3ccncc3)[nH]2)cc1 : 82%
COc1cc2ncnc(N3CCN(C(=O)Nc4ccc(Oc5ccccc5)cc4)CC3)c2cc1OC : 68%
Nc1cccc(-c2cc3c(Oc4cccc(O)c4)ncnc3[nH]2)c1 : 0%
O=c1cc(-c2cccc3c2Sc2ccccc2S3)oc(N2CCOCC2)c1 : 102%

I need residual activity for every entry listed below, if you could help.
1. Cn1cnc2cc3c(Nc4cccc(Br)c4)ncnc3cc21
2. Cc1cc2ncc(-c3ccccc3)nc2cc1C
3. Nc1n[nH]c2nnc(-c3c(-c4ccccc4)nn4ccccc34)cc12
4. Cc1ccc(NC2=CC(=O)c3sc(C)nc3C2=O)cc1

A.
1. 34%
2. 101%
3. 68%
4. 98%

---

molecular target: Serine/threonine-protein kinase tousled-like 2 (Homo sapiens) (UniProt Q86UE8); settings: at 1 µM
Sequence (Q86UE8 whole entry, looked up): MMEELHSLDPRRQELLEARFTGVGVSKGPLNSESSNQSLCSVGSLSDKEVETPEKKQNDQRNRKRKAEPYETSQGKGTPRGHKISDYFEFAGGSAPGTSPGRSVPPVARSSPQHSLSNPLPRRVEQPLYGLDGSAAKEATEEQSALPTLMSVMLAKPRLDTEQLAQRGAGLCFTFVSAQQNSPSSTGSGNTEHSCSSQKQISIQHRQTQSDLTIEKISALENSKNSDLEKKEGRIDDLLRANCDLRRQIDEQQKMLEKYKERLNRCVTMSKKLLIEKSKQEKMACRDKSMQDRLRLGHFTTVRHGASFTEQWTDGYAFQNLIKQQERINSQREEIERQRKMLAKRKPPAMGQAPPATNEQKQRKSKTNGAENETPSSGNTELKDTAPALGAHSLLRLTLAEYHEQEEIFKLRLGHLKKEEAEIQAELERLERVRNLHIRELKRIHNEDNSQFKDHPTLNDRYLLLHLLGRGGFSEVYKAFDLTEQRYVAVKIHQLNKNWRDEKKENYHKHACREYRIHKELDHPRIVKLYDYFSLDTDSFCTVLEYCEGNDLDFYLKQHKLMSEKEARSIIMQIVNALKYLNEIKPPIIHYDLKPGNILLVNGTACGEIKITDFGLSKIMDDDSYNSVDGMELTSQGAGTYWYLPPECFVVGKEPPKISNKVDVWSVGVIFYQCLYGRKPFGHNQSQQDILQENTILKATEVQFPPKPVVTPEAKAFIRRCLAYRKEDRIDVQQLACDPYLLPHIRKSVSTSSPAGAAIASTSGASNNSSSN
Please go through the items and note down their residual activity.
Give bare numbers, in %.

Nc1nc(Nc2ccc(S(N)(=O)=O)cc2)nn1C(=S)Nc1c(F)cccc1F : 4
CCN(CC)CCCCN1c2ccccc2Oc2ccc(Cl)cc21 : 111

Batch: residual activity for all items listed.
1. c1ccc2c(-c3ccncc3)c[nH]c2c1
2. N#Cc1cnc2cnc(NCc3cccnc3)cc2c1Nc1ccc(F)c(Cl)c1
3. O=C1NC(=O)/C(=C/c2ccc3c(c2)OC(F)(F)O3)S1
4. CC(C)n1cnc2/c(=N/c3cccc(Cl)c3)nc(NCCO)[nH]c21
5. Cc1cccc(-c2[nH]c(C(C)(C)C)nc2-c2ccc3c(c2)OCO3)n1

A.
[103, 73, 112, 82, 96]

---

molecular target: Serine/threonine-protein kinase mTOR (Homo sapiens); details: at 1 µM
Field: residual activity. Provide a value for each of the molecules that follow.
One number for each entry, in %.

The following molecules have reported results that may help.
Cc1nc2cc3nc(-c4cccs4)cnc3cc2n1C : 80
O=C(Nc1cccc(Nc2nccc(Nc3cccc(C(F)(F)F)c3)n2)c1)C1CC1 : 71
O=Nc1c(-c2c(O)[nH]c3ccccc23)[nH]c2ccccc12 : 117

I need residual activity for every entry listed below, if you could help.
1. O=c1c2ccccc2[nH]c(=S)n1CCN1CCC(=C(c2ccc(F)cc2)c2ccc(F)cc2)CC1
2. COc1cc2ncnc(Nc3ccc(Oc4ccccc4)cc3)c2cc1OC
3. O=C1c2ccccc2-[n+]2ccc3c([nH]c4ccccc43)c21
4. NC(=O)c1ccc2[nH]c(-c3ccc(Oc4ccc(Cl)cc4)cc3)nc2c1

A.
107
80
116
113

These measurements were taken from ChEMBL document CHEMBL2218924.
